- condition.parameters: [M+H]+; instrument: DT; single field, calibrated with Agilent tune mix (Agilent)
quantity: collision cross section (N2)
Give the figure together with its unit, number first.

Previously resolved entries follow.
O=P(O)(O)OC[C@H]1O[C@](O)(CO)[C@@H](O)[C@@H]1O [Beta-D-Fructose 6-phosphate]	149.3 Å²
CS(=O)CCC(N)C(=O)O (racemic) [DL-Methionine sulfoxide]	133.1 Å²
N[C@@H](Cc1cnc[nH]1)C(=O)O	131.9 Å²
CCCCCCCCCCCCCC[C@@H](O)[C@@H](O)[C@@H](N)CO	196.2 Å²
CC(=O)N[C@H]1C(O)O[C@H](CO)[C@@H](O)[C@@H]1O (stereo not given in full)	147.3 Å²

Fill in collision cross section (N2) for each of the 8 molecules listed.
1. C[C@]12CCC(=O)C=C1CC[C@@H]1[C@@H]2C(=O)C[C@@]2(C)[C@H]1CC[C@]2(O)C(=O)CO
2. C[N+](C)(C)CC=O
3. COc1ccc2[nH]cc(CCNC(C)=O)c2c1
4. Nc1ncnc2nc[nH]c12
5. NCCc1cnc[nH]1
6. CC(=O)N[C@H]1[C@@H](OP(=O)(O)OP(=O)(O)OC[C@H]2O[C@@H](n3ccc(=O)[nH]c3=O)[C@H](O)[C@@H]2O)O[C@H](CO)[C@@H](O)[C@@H]1O
7. CCCC(=O)SCCNC(=O)CCNC(=O)[C@H](O)C(C)(C)COP(=O)(O)OP(=O)(O)OC[C@H]1O[C@@H](n2cnc3c(N)ncnc32)[C@H](O)[C@@H]1OP(=O)(O)O
8. O=C(O)c1cc(=O)c2cccc(O)c2[nH]1

Response:
1: 188.6 Å²; 2: 117.2 Å²; 3: 154.3 Å²; 4: 125.1 Å²; 5: 120 Å²; 6: 208.8 Å²; 7: 252.9 Å²; 8: 140.5 Å²

====

- condition.parameters: [M]+; instrument: DT; stepped-field
Would you kindly list collision cross section (N2) for each of these compounds?
Give bare numbers, in Å².

Previously resolved entries follow.
CCCCCCCCCC[N+](CCCCCCCCCC)(CCCCCCCCCC)CCCCCCCCCC [TAA10]	293.5
CCCCCCCC[N+](CCCCCCCC)(CCCCCCCC)CCCCCCCC [TAA8]	256.6
CCCCCCCCCCCCCCCC[N+](CCCCCCCCCCCCCCCC)(CCCCCCCCCCCCCCCC)CCCCCCCCCCCCCCCC [TAA16]	361.5

Lab note: next compound to report on.
Request: // Input: CCCCCC[N+](CCCCCC)(CCCCCC)CCCCCC [TAA6] . Output its collision cross section (N2) only.
Response: 213.5

====

Would you kindly list collision cross section (N2) for each of these compounds?
- condition.parameters: [M+H]+; instrument: DT; stepped-field
One number for each entry, in Å².

Fill in collision cross section (N2) for each of the 3 compounds listed.
1. CCCCCCCCCCCCC=CC[C@@H](O)[C@H](CO)NC(=O)CCCCCCCCCCCCCCCCCCCCCCC [Cer(42:01)]
2. CCCCCCCCCCCCC=CC[C@@H](O)[C@H](COP(=O)([O-])OCC[N+](C)(C)C)NC(=O)CC=CCC=CCC=CCCCCCCCCCCCCCC [SM(42:04)]
3. CCCCCCCCCCCCC=CC[C@@H](O)[C@H](CO[C@@H]1O[C@H](CO)[C@@H](O)C(O)C1O)NC(=O)CC=CCCCCCCCCCCCCCCCCCC (stereo partly drawn) [GlcCer(40:02)]

Response:
1. 277.56
2. 297.81
3. 293.98

====

Would you kindly list collision cross section (N2) for each of these compounds?
- condition.parameters: [M+Na]+; instrument: DT; stepped-field
One number for each entry, in Å².

CCCCCCCCCCCCC=CC[C@@H](O)[C@H](COP(=O)([O-])OCC[N+](C)(C)C)NC(=O)CC=CCC=CCCCCCCCCCCCCCCCCCCC	312

Fill in collision cross section (N2) for each of the 5 compounds listed.
1. CCC=CCC=CCC=CCC=CCC=CCC=CCC(=O)OC[C@H](COP(=O)(O)OC[C@H](N)C(=O)O)OC(=O)CC=CCC=CCC=CCC=CCC=CCC=CCC
2. CCCCCCCCCCCCCCCCCCCC(=O)N[C@@H](CO[C@@H]1O[C@H](CO)[C@@H](O)C(O)C1O)[C@H](O)CCCCCCCCCCCCCCC (some centres undefined)
3. CCCCCCCCCCCCC=CC[C@@H](O)[C@H](CO[C@@H]1O[C@H](CO)[C@@H](O)C(O)C1O)NC(=O)CC=CCCCCCCCCCCCCCCCCCCCCCC (some centres undefined)
4. CCCCCCCCCCCCC=CC[C@@H](O)[C@H](COP(=O)([O-])OCC[N+](C)(C)C)NC(=O)CCCCCCCCCCCCCCCCCC
5. CCCCCCCCCCCCC=CC[C@@H](O)[C@H](COP(=O)([O-])OCC[N+](C)(C)C)NC(=O)CCCCCCCCCCCCCCCCCCCCCCC

Response:
[293.7, 295.6, 315.3, 294.8, 309.3]

Fill in collision cross section (N2) for each of the 3 compounds listed.
1. CCCCCCCCCCCCC=CC[C@@H](O)[C@H](CO[C@@H]1O[C@H](CO)[C@@H](O)C(O)C1O)NC(=O)CCCCCCCCCCCCCCCCCCCCC (some centres undefined)
2. CCCC/C=C\CCCCCCCC(=O)OC[C@H](COP(=O)(O)OCCN)OC(=O)CCCCC/C=C\C/C=C\C/C=C\C/C=C\CCCCC
3. CCCCCCCCCCCCC=CC[C@@H](O)[C@H](CO[C@@H]1O[C@H](CO)[C@@H](O)C(O)C1O)NC(=O)CCCCCCCCCCCCCCCCC (some centres undefined)

Response:
1. 301.1
2. 278.2
3. 286.7

====

- condition.parameters: [M+Na]+; instrument: TW; calibrated with polyalanine
Would you kindly list collision cross section (N2) for each of these compounds?
Give the figure together with its unit, number first.

Previously resolved entries follow.
Nc1nc(=O)c2nc(CNc3ccc(C(=O)N[C@@H](CCC(=O)O)C(=O)O)cc3)cnc2[nH]1	202 Å²
C=C(OP(=O)(O)O)C(=O)O [Phosphoenolpyruvate]	131 Å²
OC[C@@H](O)[C@@H](O)[C@H](O)[C@H](O)CO	137 Å²
O=C(O)[C@H](O)COP(=O)(O)O	134 Å²
C[C@@](O)(CCO)CC(=O)O	128 Å²

Fill in collision cross section (N2) for each of the 3 compounds listed.
1. O=C(O)[C@H](O)[C@@H](O)[C@H](O)[C@H](O)COP(=O)(O)O [6-Phosphogluconate]
2. OC[C@H]1OC(O)[C@@H](O)[C@@H](O)[C@@H]1O (stereo partly drawn)
3. Nc1ccn([C@H]2C[C@H](O)[C@@H](COP(=O)(O)O)O2)c(=O)n1

Response:
["159 Å²", "138 Å²", "161 Å²"]

====

- condition.parameters: [M-H]-; instrument: DT; stepped-field
quantity: collision cross section (N2) (Å²)
Answers are plain numbers, in Å².

Previously resolved entries follow.
CCCCCC/C=C\CCCCCCCCCC(=O)O[C@H](COC(=O)CCCCCCCCCCCCCCC)COP(=O)(O)OCCN [PE(34:01)]	266.91
CC/C=C\C/C=C\C/C=C\C/C=C\CCCCC(=O)OC[C@H](COP(=O)(O)OCCN)OC(=O)CCCCCCCCC/C=C\C/C=C\CCCCC [PE(38:06)]	273.81
CCCCCCCCCCCCCCCCCCCCC(=O)OC[C@H](COP(=O)(O)OCCN)OC(=O)CCCCCCCCCCCCCC [PE(36:00)]	274.96
CCCCC/C=C\C/C=C\CCCCCCCCCCCC(=O)O[C@H](COC(=O)CCCCCCCCCCC)COP(=O)(O)OCCN [PE(34:02)]	265.55
CC/C=C\C/C=C\C/C=C\C/C=C\C/C=C\CCCC(=O)OC[C@H](COP(=O)(O)OC[C@H](N)C(=O)O)OC(=O)CCCCC/C=C\C/C=C\C/C=C\C/C=C\CCCCC [PS(42:09)]	290.63

Request: // Input: CCCCC/C=C\C/C=C\C/C=C\CCCCCCC(=O)O[C@H](COC(=O)CCCCCCC/C=C\CCCCCCCC)COP(=O)(O)OC[C@H](N)C(=O)O [PS(38:04)] . Output its collision cross section (N2) only.
Response: 285.11

====

Would you kindly list collision cross section (N2) for each of these compounds?
- condition.parameters: [M+Na]+; instrument: DT; single field, calibrated with Agilent tune mix (Agilent)
Numbers only, in Å².

CCCCCCCCCCCCC=CC[C@@H](O)[C@H](CO[C@@H]1O[C@H](CO)[C@@H](O)C(O)C1O)NC(=O)CCCCCCCCCCCCCCCCCCCCCCCCC (some centres not stated)	308.7

Fill in collision cross section (N2) for each of the 4 compounds listed.
1. CCCCCCCCCCCCC=CC[C@@H](O)[C@H](CO[C@@H]1O[C@H](CO)[C@@H](O)C(O)C1O)NC(=O)CCCCCCCCCCCCCCCCC (some centres not stated)
2. CCCCCCCCCCCCC=CC[C@@H](O)[C@H](CO)NC(=O)CC=CCCCCCCCCCCCCCCCCCCCC
3. CCCCCCCCCCCCC=CC[C@@H](O)[C@H](CO[C@@H]1O[C@H](CO)[C@@H](O)C(O)C1O)NC(=O)CCCCCCCCCCCCCCCCCCCCCCC (some centres not stated)
4. CCCCCCCCCC/C=C\CCCCCCCCCC(=O)O[C@H](COC(=O)CCCCCCCCCCCCC)COP(=O)(O)OCCN

Response:
1: 283.5; 2: 278.8; 3: 302.8; 4: 287.5

Fill in collision cross section (N2) for each of the 7 compounds listed.
1. CCCCC/C=C\C/C=C\C/C=C\CCCCC(=O)O[C@H](COC(=O)CCCCCCCCC/C=C\C/C=C\CCCCC)COP(=O)(O)O[C@H]1C(O)C(O)C(O)[C@@H](O)C1O (some centres not stated)
2. CCCCCCCCCCCCCCCCCC(=O)OC[C@@H](O)COP(=O)(O)OC[C@H](N)C(=O)O
3. CCCCC/C=C\C/C=C\C/C=C\CCCCC(=O)OC[C@H](COP(=O)([O-])OCC[N+](C)(C)C)OC(=O)CCCCCCCCC/C=C\C/C=C\CCCCC
4. CCCCC/C=C\C/C=C\CCCCCCCCCCCC(=O)O[C@H](COC(=O)CCCCCCC/C=C\C/C=C\CCCCC)COP(=O)(O)OC[C@H](N)C(=O)O
5. CCCCCC/C=C\CCCCCCCC(=O)OC[C@H](COP(=O)(O)O[C@H]1C(O)C(O)C(O)[C@@H](O)C1O)OC(=O)CCCCCCCCC/C=C\CCCCCCCCCC (some centres not stated)
6. CCCCC/C=C\C/C=C\CCCCCCCCCCCC(=O)O[C@H](COC(=O)CCCCCCCCCCCCC)COP(=O)(O)OC[C@H](N)C(=O)O
7. CCCCCCCCCCCCC=CC[C@@H](O)[C@H](COP(=O)([O-])OCC[N+](C)(C)C)NC(=O)CCCCCCCCCCCCCCCCCCCCCC

Response:
298.7
232.1
296.8
297.6
303.2
284.2
302.8

Sourced from the C3SDB collision cross section collection
